Values compiled from PubChem BioAssay (NCI).

assay.explanation: NCI Yeast Anticancer Drug Screen. Data for the rad14 strain (AID 159);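 further: 0% = growth of vehicle-treated control cultures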
assay.setup: S. cerevisiae rad14 strain growth inhibition; at 100.0 µM; active compounds read high
This is part of a sample that, as a whole, favours compounds with a hit. Of some 79,000 tested, about 15% had one in any assay.
measured.metric: growth inhibition (%)
Numeric answer only, unit % assumed.

Lab book: growth inhibition of C[C@]12CCC3[C@@H](CC[C@@H]4c5nonc5CC[C@]34C)C1CCC2=O (some centres undefined) noted as 90

Lab book: growth inhibition of O=C1C=C(CN(CCCl)CCCl)C(=O)C=C1CN(CCCl)CCCl noted as 61

Lab book: growth inhibition of OCC(O)C(O)CO (centres undefined) (tested in a mixture with another compound) noted as -1

Lab book: growth inhibition of O=C1C2CC(Cl)C(SSC3CC4C(=O)N(SC(Cl)(Cl)C(Cl)Cl)C(=O)C4CC3Cl)CC2C(=O)N1SC(Cl)(Cl)C(Cl)Cl (centres undefined) noted as 90

---

Reported growth inhibition values follow for various molecules
assay.explanation: NCI Yeast Anticancer Drug Screen. Data for the bub3 strain (AID 167)
assay.setup: S. cerevisiae bub3 mutant strain, at 50.0 µM (retest, dose inferred, filed as 5.0), active compounds read high
Compounds without any hit were thinned out: in the full panel of roughly 79,000, 15% have a hit.
Numeric answer only, unit % assumed.

Record excerpt, results attached:
molecule	units	growth inhibition
CN(C)C(=O)Oc1c(Cl)cc(Cl)c(Cl)c1Cl	%	8
S=C(SSC(=S)N1CCCCC1)N1CCCCC1	%	99
COc1cc(C[C@H]2c3cc(OC)c(OC)c(O)c3CCN2C)c(Oc2cc3c(cc2OC)-c2c(OC)c(OC)c(OC)c4c2C(C3)N(C)CC4)cc1OC (some centres undefined) (tested in a mixture with another compound)	%	39
C[N+](C)(C)CC1CCC(C[N+](C)(C)C)C1=O (centres undefined)	%	6
Nc1nc(N)c(-c2ccc(Cl)c(Cl)c2)c(CCc2ccc(CNC(=O)c3cc(S(=O)(=O)F)ccc3Cl)cc2)n1	%	45

Lab book: growth inhibition of c1ccc(P(CCP(c2ccccc2)c2ccccc2)CCP(c2ccccc2)c2ccccc2)cc1 noted as 96

Lab book: growth inhibition of CCC1(CC)C(=O)[N-]C(=O)[N-]C1=O.[Au+].[Au+].c1ccc([PH+](c2ccccc2)c2ccccc2)cc1.c1ccc([PH+](c2ccccc2)c2ccccc2)cc1 noted as 90

Lab book: growth inhibition of CCCCN(CC)CC(C(C)=O)c1c(O)c2ccccc2oc1=O (centres undefined) noted as 73

Lab book: growth inhibition of CC12CCC3C(CCC4CC(N5CCCCC5)=CCC43C)C1CCC2O (centres undefined) noted as 98

Lab book: growth inhibition of CCOP(=O)(Oc1ccc([N+](=O)[O-])cc1)c1ccccc1C(C)C (centres undefined) noted as 49

Lab book: growth inhibition of c1ccc([CH2][Pb]([c]2ccccc2)([c]2ccccc2)[c]2ccccc2)cc1 noted as 97

Lab book: growth inhibition of CCN(CCCl)CCCCNc1c2ccccc2nc2ccc(OC)cc12 noted as -15

---

assay.explanation: NCI Yeast Anticancer Drug Screen. Data for the wt2 strain (AID 169);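 further: 0% = growth of vehicle-treated yeast cultures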
assay.setup: S. cerevisiae wt2 strain growth inhibition; at 11.0 µM; active compounds read high
The panel holds about 79,000 compounds, 15% with a hit somewhere; the sample as a whole holds those more often.
measured.metric: growth inhibition (%)
Numeric answer only, unit % assumed.

Record excerpt, results attached:
>>> print(df.to_string())
                                   compound  test_value
0  CC(C)CC(NC(=O)C(N)C(C)C)C(=O)NC(CCCCN)C(=O)Nc1ccc(N(CCCl)CCCl)cc1 (stereo not drawn)         -86
1  NC1=NCC(c2ccc(Cl)cc2)O1 (stereo not drawn)           0
2  COc1cccc2c1C(=O)c1c(O)c3c(c(O)c1C2=O)C[C@@](O)(C(C)=O)C[C@@H]3OC1CC(N)C(OC2CC(O)C(O)C(C)O2)C(C)O1 (stereo partly drawn)         -54
3  COc1cc(O)c2c(O)c3c(c4c2c1[C@]1(C4)C(C)=CCCC1(C)C)[C@H](O)[C@@]1(O)CC(=O)C(C(N)=O)=C(O)[C@@]1(O)C3=O          97
4  O=[N+]([O-])c1cc([As](Br)c2ccc(O)c([N+](=O)[O-])c2)ccc1O          99

Lab book: growth inhibition of C[C@]12CCc3nonc3C1CC[C@@H]1C2CC[C@]2(C)C(=O)CCC12 (stereo partly drawn) noted as 1

Lab book: growth inhibition of COc1cccc2c1C(=O)c1c(O)c3c(c(O)c1C2=O)C[C@@](O)(/C(C)=N\O)C[C@@H]3OC1CC(N)C(O)C(C)O1 (stereo partly drawn) noted as 12

Lab book: growth inhibition of O=C(Nc1cc(Cl)ccc1Cl)C(Cl)(Cl)Cl noted as 5
